ASSAY REMARKS: Stability of compounds in mouse blood plasma
Assay type: in vitro ADME
Numbered stars: 1 amine (or outer) side, 2 acyl side, 3 side chain; on linkers, the order of the positions; unused ones are H or OH. Square brackets hold non-standard residues; d marks the D form. Peptide text beside a SMILES is read from it. * marks the point of attachment. ξ: configuration not given here. Gly(1-amidinopiperidin-4-yl) = N=C(N)N1CCC([C@H](N)C(=O)O)CC1; X1 = CC(C)c1oc([C@H](CO)N[*:1])nc1C(=O)[*:2]; Pro(3R-Ph) = O=C(O)[C@H]1NCC[C@@H]1c1ccccc1; Tic = O=C(O)[C@@H]1Cc2ccccc2CN1; Cha = N[C@@H](CC1CCCCC1)C(=O)O; NHPhenethyl = c1ccc(CCN*)cc1; ξDisc = O=C(O)C1NCc2ccccc21; X4 = OCCOCCN(CCc1ccccc1)*; Nle = CCCC[C@H](N)C(=O)O; X2 = OCCOCCN(Cc1ccccc1)*
RECORDED METRIC: Stability (Arbitrary units) Mouse 6 h
// units = Arbitrary units; emit number, no label

{"COMPOUND": "CCCC[C@H](NC(=O)[C@@H]1Cc2ccccc2CN1C(=O)[C@H](CCCNC(=N)N)NC(=O)[C@H](CC1CCCCC1)NC(C)=O)C(=O)N(CCOCCO)Cc1ccccc1 [Compound P98, Ac-Cha-Arg-Tic-Nle-N(Bn)CH2CH2OCH2CH2OH] (Ac-[Cha]R[Tic][Nle]-X2)", "READOUT UNIT": "Arbitrary units", "Stability (Arbitrary units) Mouse 6 h": 87}
{"COMPOUND": "CCCC[C@H](NC(=O)[C@@H]1Cc2ccccc2CN1C(=O)[C@H](CCCNC(=N)N)NC(=O)[C@H](CC1CCCCC1)NC(C)=O)C(=O)N(CCOCCO)CCc1ccccc1 [Compound P88] (Ac-[Cha]R[Tic][Nle]-X4)", "READOUT UNIT": "Arbitrary units", "Stability (Arbitrary units) Mouse 6 h": 125}
{"COMPOUND": "CCCC[C@H](NC(=O)[C@@H]1Cc2ccccc2CN1C(=O)[C@H](CCCNC(=N)N)NC(=O)[C@H](CC1CCCCC1)NC(C)=O)C(=O)NCCc1ccccc1 [Compound P82, Ac-Cha-Arg-Tic-Nle-N(H)CH2CH2Ph] (Ac-[Cha]R[Tic][Nle]-NHPhenethyl)", "READOUT UNIT": "Arbitrary units", "Stability (Arbitrary units) Mouse 6 h": 79}
{"COMPOUND": "CSCC[C@H](NC(=O)[C@@H]1Cc2ccccc2CN1C(=O)[C@@H](NC(=O)[C@H](CC1CCCCC1)NC(C)=O)C1CCN(C(=N)N)CC1)C(=O)N1CC[C@H](c2ccccc2)[C@H]1C(N)=O [Compound P80, Ac-Cha-Gpg-Tic-Met-βPhProNH2] (Ac-[Cha][Gly(1-amidinopiperidin-4-yl)][Tic]M[Pro(3R-Ph)]-NH2)", "READOUT UNIT": "Arbitrary units", "Stability (Arbitrary units) Mouse 6 h": 106}
{"COMPOUND": "CCCC[C@H](NC(=O)C1c2ccccc2CN1C(=O)[C@@H](NC(=O)[C@H](CC1CCCCC1)NC(C)=O)C1CCN(C(=N)N)CC1)C(=O)N1CC[C@H](c2ccccc2)[C@H]1C(=O)N[C@@H](CO)c1nc(C(=O)N(C)C)c(C(C)C)o1 (stereo partly drawn) [Compound P81-1] (Ac-[Cha][Gly(1-amidinopiperidin-4-yl)][ξDisc][Nle][Pro(3R-Ph)][X1]-NMe2)", "READOUT UNIT": "Arbitrary units", "Stability (Arbitrary units) Mouse 6 h": 87}
{"COMPOUND": "CCCC[C@H](NC(=O)C1c2ccccc2CN1C(=O)[C@@H](NC(=O)[C@H](CC1CCCCC1)NC(C)=O)C1CCN(C(=N)N)CC1)C(=O)N(C)Cc1ccccc1 (single isomer, unassigned) [Compound P78-1]", "READOUT UNIT": "Arbitrary units", "Stability (Arbitrary units) Mouse 6 h": 93}
{"COMPOUND": "CSCC[C@H](NC(=O)[C@@H]1Cc2ccccc2CN1C(=O)[C@H](CCCNC(=N)N)NC(=O)[C@H](CC1CCCCC1)NC(C)=O)C(=O)N(CCOCCO)Cc1ccccc1 [Compound P99, Ac-Cha-Arg-Tic-Met-N(Bn)CH2CH2OCH2CH2OH] (Ac-[Cha]R[Tic]M-X2)", "READOUT UNIT": "Arbitrary units", "Stability (Arbitrary units) Mouse 6 h": 71}

Next compound, Stability (Arbitrary units) Mouse 6 h to be filled in.
The measured Stability (Arbitrary units) Mouse 6 h associated with CSCC[C@H](NC(=O)C1c2ccccc2CN1C(=O)[C@H](CCCNC(=N)N)NC(=O)[C@H](CC1CCCCC1)NC(C)=O)C(N)=O (stereo partly drawn) [Compound P12-1, Ac-Cha-Arg-Disc-Met-NH2] (Ac-[Cha]R[ξDisc]M-NH2) reads 76

----------
TARGET OF ASSAY: Priess (DR4Dw4: DRA1*0101 DRB1*0401) cells (Homo sapiens, UniProt P01903+P01911, A100K/A169T/F76Y/I96L/K127E/L162R/M171V/N62H/P40V/Q125Y/R42H/S133A/S149N/S66Y/V115G/V209L/W38E)
Construct: MHC II Proteins Expressed on PRIESS and LG2 Cells; endogenous in cells; host or cells: Priess cells
ASSAY REMARKS: Competitive binding to MHC II proteins expressed on Priess cells
Type: cell-based
Square brackets hold non-standard residues; d marks the D form. Peptide text beside a SMILES is read from it. * marks the point of attachment. ξ: configuration not given here. Cha = N[C@@H](CC1CCCCC1)C(=O)O; NMe(benzyl) = CN(Cc1ccccc1)*; ξDisc = O=C(O)C1NCc2ccccc21; Nle = CCCC[C@H](N)C(=O)O
RECORDED METRIC: pIC50
pIC50 field: float, defined as -log10 of concentration (mol/L).

The value of pIC50 measured for the molecule CCCC[C@H](NC(=O)C1c2ccccc2CN1C(=O)[C@H](CCCNC(=N)N)NC(=O)[C@H](CC1CCCCC1)NC(C)=O)C(=O)N(C)Cc1ccccc1 (stereo partly drawn) [Compound P72-1, Ac-Cha-Arg-Disc-Nle-N(Me)Bn] (Ac-[Cha]R[ξDisc][Nle]-{NMe(benzyl)}) turned out to be 5.12

molecule CSCC[C@H](NC(=O)C1c2ccccc2CN1C(=O)[C@H](CCCNC(=N)N)NC(=O)[C@H](CC1CCCCC1)NC(C)=O)C(N)=O (stereo partly drawn) [Compound P12-1, Ac-Cha-Arg-Disc-Met-NH2] (Ac-[Cha]R[ξDisc]M-NH2) , pIC50 observed: 5.17

----------
TARGET OF ASSAY: Cathepsin B1 (EC 3.4.22.1 from bovine spleen) (Bos taurus, UniProt P07688)
DETAILS: Cathepsin B, 4 h
Square brackets hold non-standard residues; d marks the D form. Peptide text beside a SMILES is read from it. * marks the point of attachment. ξ: configuration not given here. Tic = O=C(O)[C@@H]1Cc2ccccc2CN1; Cha = N[C@@H](CC1CCCCC1)C(=O)O; NHPhenethyl = c1ccc(CCN*)cc1; ξDisc = O=C(O)C1NCc2ccccc21; X4 = OCCOCCN(CCc1ccccc1)*; Nle = CCCC[C@H](N)C(=O)O
Mark -1 for Stability (Arbitrary units) Cath B 4 h values under 100 Arbitrary units, and 1 for everything at or above.

{"COMPOUND": "CCCC[C@H](NC(=O)[C@@H]1Cc2ccccc2CN1C(=O)[C@H](CCCNC(=N)N)NC(=O)[C@H](CC1CCCCC1)NC(C)=O)C(=O)NCCc1ccccc1 [Compound P82, Ac-Cha-Arg-Tic-Nle-N(H)CH2CH2Ph] (Ac-[Cha]R[Tic][Nle]-NHPhenethyl)", "TARGET OF ASSAY": "Cathepsin B1 (EC 3.4.22.1 from bovine spleen) (Bos taurus, UniProt P07688)", "LABEL CLASS": 1}
{"COMPOUND": "CSCC[C@H](NC(=O)C1c2ccccc2CN1C(=O)[C@H](CCCNC(=N)N)NC(=O)[C@H](CC1CCCCC1)NC(C)=O)C(N)=O (stereo partly drawn) [Compound P12-1, Ac-Cha-Arg-Disc-Met-NH2] (Ac-[Cha]R[ξDisc]M-NH2)", "TARGET OF ASSAY": "Cathepsin B1 (EC 3.4.22.1 from bovine spleen) (Bos taurus, UniProt P07688)", "LABEL CLASS": -1}

Could you tell me if the measured Stability (Arbitrary units) Cath B 4 h of CSCC[C@H](NC(=O)[C@@H]1Cc2ccccc2CN1C(=O)[C@H](CCCNC(=N)N)NC(=O)[C@H](CC1CCCCC1)NC(C)=O)C(=O)N(CCOCCO)CCc1ccccc1 [Compound P96] (Ac-[Cha]R[Tic]M-X4) reaches 100 Arbitrary units or more?
-1

For this compound, is measured Stability (Arbitrary units) Cath B 4 h 100 Arbitrary units or higher? CCCC[C@H](NC(=O)[C@@H]1Cc2ccccc2CN1C(=O)[C@H](CCCNC(=N)N)NC(=O)[C@H](CC1CCCCC1)NC(C)=O)C(=O)N(CCOCCO)CCc1ccccc1 [Compound P88] (Ac-[Cha]R[Tic][Nle]-X4)
-1
